Reported IC50 is given for each of the following binders.
Target: HLA-DR molecule, DRB1*1101 (human)
Test: ELISA
Where no end group is shown, it is not given here.

Solved cases (2 shown):
1. GKQLYNVEATSYALLALLQLKDFD (also: amino and carboxyl ends blocked) [C3d_(223–246)] ... < 2000 nM
2. QATFMVFQALAQYQKDAP (also: amino and carboxyl ends blocked) [C3d_(269–286)] ... < 2000 nM

**Query** Query: IC50; subject: VPPVVRWLNEQRYYGGGY (also: amino and carboxyl ends blocked) [C3d_(248–265)]
**Result** < 2000 nM
